Entries and their pKd
- target.or.system: Sa Hfq(K33A) (Staphylococcus aureus, UniProt A0A0H3JV59 1-77, K33A)
- experiment.summary: fluorescence polarization
pKd: −log10 of the molar value.

binder: AAAAAAA (ssRNA) [(AA)3A = A7]
pKd: 6.39
--
binder: AUAUAUA (ssRNA) [(AU)3A]
pKd: 6.51
--
binder: UUUUUU (ssRNA) [U6]
pKd: 7.14
--
binder: AGAGAGA (ssRNA) [(AG)3A]
pKd: 7.92
